Experiment: Inhibition of rapid component of delayed rectifier potassium current IKr in guinea pig ventricular myocytes
Type: cell-based, Cavia porcellus, Ventricular myocyte
Conditions: Cavia porcellus, Ventricular myocyte
parameter_measured: pIC50
// pIC50 here means minus log10 of the molar concentration (mol/L)

The measured pIC50 associated with COc1ccc2c(c1)CCC(CCN1CCC(c3ccccc3)CC1)C2=O (stereo in doubt; 8a) reads 5.77

The measured pIC50 associated with OC1c2ccc(OCc3ccccc3)cc2CCC1CCN1CCC(c2ccccc2)CC1 (stereo in doubt; 7b) reads 6.77

The measured pIC50 associated with COc1ccc2c(c1)CCC(CN1CCC(c3ccccc3)CC1)C2=O (stereo not drawn) reads 5.40
